Catalogue of log10 IC50 values
- Study System: glucagon receptor (GCGR) (Homo sapiens, UniProt P47871)
- Construct: expressed in transfected cells; host or cells: CHO-K1 cells overexpressing GCGR (membrane fractions)
- Sequence (P47871 26-477): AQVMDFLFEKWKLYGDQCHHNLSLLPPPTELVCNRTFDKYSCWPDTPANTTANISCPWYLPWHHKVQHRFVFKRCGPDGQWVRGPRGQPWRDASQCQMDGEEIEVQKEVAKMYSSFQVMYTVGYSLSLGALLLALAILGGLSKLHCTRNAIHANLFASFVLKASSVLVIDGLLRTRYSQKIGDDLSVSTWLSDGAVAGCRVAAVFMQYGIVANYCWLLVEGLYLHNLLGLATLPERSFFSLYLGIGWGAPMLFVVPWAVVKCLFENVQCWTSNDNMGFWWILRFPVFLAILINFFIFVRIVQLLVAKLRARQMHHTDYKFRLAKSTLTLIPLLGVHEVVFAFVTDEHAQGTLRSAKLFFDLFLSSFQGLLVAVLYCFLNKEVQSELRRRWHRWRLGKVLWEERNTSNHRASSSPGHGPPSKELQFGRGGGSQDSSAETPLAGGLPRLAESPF
- Test Summary: I125-glucagon binding assay (competition, GCGR membrane fractions)
- Test Parameters: competition with I125-glucagon 0.0625 nM, membrane fractions of GCGR overexpressed CHO-K1 cells
Measure Name: log10 IC50 (log10 of the value in nM)

>>> readout_number("CC[C@H](C)[C@@H](COc1ccc(-c2ccc(C(C)(C)C)cc2)cc1)Nc1ccc(C(=O)NCCC(=O)O)cc1")
2.50
>>> readout_number("CC[C@H](C)[C@@H](COc1ccc(-c2nnc(-c3ccccc3)o2)c(OC)c1)Nc1ccc(C(=O)NCCC(=O)O)cc1")
2.78
>>> readout_number("CC(C)[C@@H](COc1ccc(-c2ccc(C(C)(C)C)cc2)nn1)Nc1ccc(C(=O)NCCC(=O)O)cc1")
4.30
>>> readout_number("CC(C)(C)[C@@H](COc1ccc(-c2ccc(C(F)(F)F)cc2F)c(Cl)c1)Nc1ccc(C(=O)NCCC(=O)O)cc1")
1.72
>>> readout_number("Cc1cc(OC[C@@H](Nc2ccc(C(=O)NCCC(=O)O)cc2)C(C)C)cc(C)c1-c1ccc(C(C)(C)C)cc1")
2.54
>>> readout_number("CCCC[C@@H](COc1ccc(-c2ccc(Cl)cc2Cl)c(F)c1)Nc1ccc(C(=O)NCCC(=O)O)cc1")
1.95
>>> readout_number("Cc1cc(OC[C@H](CC(C)C)Nc2ccc(C(=O)NCCC(=O)O)cc2)cc(C)c1-c1ccc(OC(F)(F)F)cc1")
2.67
>>> readout_number("CC(C)(C)[C@@H](COc1ccc(-c2ccc(Cl)cc2Cl)c(F)c1)Nc1ccc(C(=O)NCCC(=O)O)cc1")
1.83
>>> readout_number("CC[C@H](C)[C@@H](COc1cc(C)c(-c2ccc(C(F)(F)F)cc2)c(C)c1)Nc1ccc(C(=O)NCCC(=O)O)cc1")
1.95
>>> readout_number("CCC(C)[C@@H](COc1ccc(-c2nnc(C(F)(F)F)o2)cc1)Nc1ccc(C(=O)NCCC(=O)O)cc1 (some centres unmarked)")
2.59
>>> readout_number("CCCC[C@@H](COc1ccc(-c2ccc(Cl)cc2Cl)c(Cl)c1)Nc1ccc(C(=O)NCc2nnn[nH]2)cc1")
1.96
>>> readout_number("CC[C@H](C)[C@@H](COc1ccc(-c2ccc(C(F)(F)F)cc2Cl)nc1)Nc1ccc(C(=O)NCCC(=O)O)cc1")
2.15
>>> readout_number("CC(C)[C@@H](COc1cc(F)c(-c2ccc(Cl)cc2Cl)c(F)c1)Nc1ccc(C(=O)NCCC(=O)O)cc1")
1.87
>>> readout_number("CC(C)[C@@H](COc1ccc(-c2ccc(F)cc2F)nn1)Nc1ccc(C(=O)NCCC(=O)O)cc1")
3.00

The origin of these recorded values is patent US11384060B2.
